target: 15N-labelled NDM-1 (Klebsiella pneumoniae, UniProt C7C422)
Construct: made in house
Sequence (C7C422 29-270 limits assumed): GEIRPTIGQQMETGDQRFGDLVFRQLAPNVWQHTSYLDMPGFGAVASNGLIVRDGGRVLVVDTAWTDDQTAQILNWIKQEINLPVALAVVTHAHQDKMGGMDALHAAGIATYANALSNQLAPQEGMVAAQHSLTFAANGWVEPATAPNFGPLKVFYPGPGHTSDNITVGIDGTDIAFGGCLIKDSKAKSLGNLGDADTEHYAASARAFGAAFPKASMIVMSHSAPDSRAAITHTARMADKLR
protocol.notes: 1H,15N HSQC NMR chemical shift perturbation titration, NDM-1
Assay type: binding
applied.conditions: Estimated binding constant (Kd), residue 149A, Table S5; per-residue fit, NDM-1 149A
Experimental: Solution NMR spectroscopy is a powerful tool to assess protein–ligand interactions under close to physiological conditions.[47] […] Chemical shift perturbation was calculated according equation (1) 2 […] Further on, Kd was calculated according: 3 […]
reported.property: Kd (mM)

>>> recorded_value("O=C(Cc1ccsc1)NC(C1CCCCN1)P(=O)(O)O (stereo not drawn)")
3.18
>>> recorded_value("O=C(NC(C1CCCCN1)P(=O)(O)O)c1ccsc1 (stereo not drawn)")
1.76
>>> recorded_value("O=C(NC(C1CCCCN1)P(=O)(O)O)c1cccs1 (stereo not drawn)")
1.71

----------
# Kd listing for each entry below
target: 15N-labelled NDM-1 (Klebsiella pneumoniae)
Construct: made in house
protocol.notes: 1H,15N HSQC NMR chemical shift perturbation titration, NDM-1
Format: binding
applied.conditions: Estimated binding constant (Kd), residue 108E, Table S5; per-residue fit, NDM-1 108E
reported.property: Kd (mM)

>>> recorded_value("O=C(NC(C1CCCCN1)P(=O)(O)O)c1ccsc1 (stereo not shown) [Compound 5c-1]")
4.5
>>> recorded_value("O=C(NC(C1CCCCN1)P(=O)(O)O)c1cccs1 (stereo not shown) [Compound 5b-1]")
6.63
>>> recorded_value("O=C(Cc1cccs1)NC(C1CCCCN1)P(=O)(O)O (stereo not shown) [Compound 5i-2]")
2.03
>>> recorded_value("O=C(Cc1ccsc1)NC(C1CCCCN1)P(=O)(O)O (stereo not shown) [Compound 5j-1]")
3.54

----------
target: 15N-labelled NDM-1 (Klebsiella pneumoniae)
Construct: made in house
protocol.notes: 1H,15N HSQC NMR chemical shift perturbation titration, NDM-1
Assay type: binding
applied.conditions: Estimated binding constant (Kd), residue 252A, Table S5; per-residue fit, NDM-1 252A
# Kd listing for each entry below
reported.property: Kd (µM)

>>> recorded_value("O=C(NC(C1CCCCN1)P(=O)(O)O)c1cccs1 (centres unmarked)")
3480
>>> recorded_value("O=C(Cc1cccs1)NC(C1CCCCN1)P(=O)(O)O (centres unmarked)")
480
